Recorded logP for the following compounds
experiment: logP by HPLC on reversed-phase column (EEC Directive 79/831 Annex V.A8)
Format: physicochemical
assay_conditions: HPLC on reversed-phase column (C 18), 40° C., 0.1% aqueous formic acid and acetonitrile, linear gradient 10% to 90% acetonitrile
property_name: logP

Cn1nc(C(F)F)c(C(=O)N2CCCC2c2cccc(C(F)(F)F)c2)c1F (stereo not shown) [Example 17]; 3.06
Cn1nc(C(F)F)c(C(=O)N2CCCC2c2cccc(Br)c2)c1Cl (stereo not shown) [Example 33]; 3.06
Cn1nc(C(F)F)c(C(=O)N2CCCC2c2cccc3ccccc23)c1F (stereo not shown) [Example 41]; 3.08
Cn1nc(C(F)F)c(C(=O)N2CCCC2c2ccccc2Br)c1Cl (stereo not shown) [Example 31]; 3.09

----------
Recorded logP for the following compounds
experiment: logP by HPLC on reversed-phase column (EEC Directive 79/831 Annex V.A8)
Type: physicochemical
assay_conditions: HPLC on reversed-phase column (C 18), 40° C., 0.1% aqueous formic acid and acetonitrile, linear gradient 10% to 90% acetonitrile
property_name: logP

Cn1nc(C(F)F)c(C(=O)N2CCCC2c2cccc(Br)c2)c1F (stereo not drawn); 2.92
Cn1nc(C(F)F)c(C(=O)N2CCCC2c2cc(Cl)cc(Cl)c2)c1F (stereo not drawn); 3.35
Cn1nc(C(F)F)c(C(=O)N2CCCC2c2cc(Cl)cc(Cl)c2)c1Cl (stereo not drawn); 3.50
Cn1nc(C(F)F)c(C(=O)N2CCCC2c2ccccc2Br)c1F (stereo not drawn); 2.98
Cn1nc(C(F)F)c(C(=S)N2CCCC2Cc2ccccc2Cl)c1F (racemic); 3.83
Cn1nc(C(F)F)c(C(=O)N2CCCC2c2ccccc2C(F)(F)F)c1F (stereo not drawn); 3.09
Cn1nc(C(F)F)c(C(=O)N2CCCC2c2ccc(C(C)(C)C)cc2)c1F (stereo not drawn); 3.74
Cn1nc(C(F)F)c(C(=O)N2CCCC2Cc2ccc(Cl)cc2)c1F (racemic); 3.29
Cn1nc(C(F)F)c(C(=O)N2CCCC2Cc2c(F)cccc2Cl)c1F (racemic); 3.15
Cc1ccc(CC2CCCN2C(=O)c2c(C(F)F)nn(C)c2F)cc1 (stereo not drawn); 3.23
Cn1nc(C(F)F)c(C(=O)N2CCCC2c2cccc(C(F)(F)F)c2)c1Cl (stereo not drawn); 3.21
Cc1cc(C)c(CC2CCCN2C(=O)c2c(C(F)F)nn(C)c2F)cc1C (racemic); 3.81
CC(c1cc(Cl)ccc1Cl)C1CCCN1C(=O)c1c(C(F)F)nn(C)c1F (mixture of isomers); 3.76
Cn1nc(C(F)F)c(C(=O)N2CCCC2Cc2ccc(Br)cc2)c1F (racemic); 3.39
Cn1nc(C(F)F)c(C(=O)N2CCCC2c2ccccc2C(F)(F)F)c1Cl (stereo not drawn); 3.19
Cn1nc(C(F)F)c(C(=O)N2CCCC2c2ccc(Cl)cc2)c1Cl (stereo not drawn); 3.04
CC(c1c(Cl)cccc1Cl)C1CCCN1C(=O)c1c(C(F)F)nn(C)c1F (mixture of isomers); 3.52
Cn1nc(C(F)F)c(C(=O)N2CCC[C@H]2COc2ccc(Cl)cc2)c1F; 3.29
Cn1nc(C(F)F)c(C(=O)N2CCCC2c2nc3ccccc3s2)c1Cl (stereo not drawn); 2.61
Cn1nc(C(F)F)c(C(=O)N2CCCC2Cc2cccc3ccccc23)c1F (racemic); 3.52
CC(c1c(Cl)cccc1Cl)C1CCCN1C(=O)c1c(C(F)F)nn(C)c1Cl (mixture of isomers); 3.81
Cc1ccccc1C1CCCN1C(=O)c1c(C(F)F)nn(C)c1F (stereo not drawn); 2.75
Cn1nc(C(F)F)c(C(=O)N2CCCC2CCc2ccccc2)c1F (racemic); 3.02
Cn1nc(C(F)F)c(C(=O)N2CCCC2c2ccccc2Cl)c1Cl (stereo not drawn); 3.04
Cn1nc(C(F)F)c(C(=O)N2CCCC2c2ccc3c(c2)OCO3)c1F (stereo not drawn); 2.35
COc1ccccc1C1CCCN1C(=O)c1c(C(F)F)nn(C)c1F (stereo not drawn); 2.59
Cn1nc(C(F)F)c(C(=O)N2CCCC2Cc2ccccc2)c1F (stereo not drawn); 2.84
Cn1nc(C(F)F)c(C(=O)N2CCCC2c2cnc3ccccc3c2)c1F (stereo not drawn); 1.50
Cn1nc(C(F)F)c(C(=S)N2CCCC2c2cccc(C(F)(F)F)c2)c1Cl (stereo not drawn); 3.79
Cn1nc(C(F)F)c(C(=O)N2CCCC2Cc2c(Cl)cccc2Cl)c1Cl (racemic); 3.50
